molecular target: T1, human CD40 extracellular domain with C-terminal His-AviTag (human, UniProt P25942 21-193); assay: SPR, antibody captured, CD40 ECD analyte;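 further: biacore SPR at 25 °C in PBS-T pH 7.4, CD40 ECD analyte from 300 nM in 1:3 series, 300 s association, up to 1200 s dissociation, double-referenced, Langmuir 1:1 fit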
T1 construct: not shown: C-terminal His-AviTag
T1 sequence (P25942 21-193): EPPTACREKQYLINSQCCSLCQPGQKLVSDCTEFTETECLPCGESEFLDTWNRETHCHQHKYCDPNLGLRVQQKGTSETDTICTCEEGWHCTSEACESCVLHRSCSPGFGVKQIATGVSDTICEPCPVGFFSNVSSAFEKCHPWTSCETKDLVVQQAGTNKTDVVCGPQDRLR
Value Kind: koff (s⁻¹)
Unit s⁻¹ implied. Number only.

Return the recorded koff value; entry: P1AE0405, humanized anti-CD40 antibody VH2b/VL2b, huIgG1_LALA_PG (antibody, V domains shown, huIgG1 with effector silent Fc (P329G, L234A, L235A); also called VL2b/VH2b) VH: EVQLLESGGGLVQPGGSLRLSCAASGYSFTGYYIHWVRQAPGKSLEWVGRVIPNAGGTSYNQKFKGRFTISVDNSKNTAYLQMNSLRAEDTAVYYCAREGIYWWGQGTTVTVSS VL: DIQMTQSPSSLSASVGDRVTITCRSSQSLVHSNGNTFLHWYQQKPGQSPKLLIYTVSNRFSGVPSRFSGSGSGTDFTLTISSLQPEDFATYFCSQTTHVPWTFGGGTKVEIK
0.00814

Return reported koff. Input binder: P1AE1000, humanized anti-CD40 antibody VH1d/VL1c, huIgG1_LALA_PG (antibody, V domains shown, huIgG1 with effector silent Fc (P329G, L234A, L235A)) VH: QVQLVQSGAEVKKPGASVKVSCKASGYSFTGYYIHWVRQAPGQSLEWMGRVIPNAGGTSYNQKFKGRVTLSVDKSISTAYMELSRLRSDDTAVYYCAREGIYWWGQGTTVTVSS VL: DVVVTQTPLSLSVTPGQPASISCRSSQSLVHSNGNTFLHWYLQKPGQSPQLLIYTVSNRFSGVPDRFSGSGSGTDFTLKISRVEAEDVGVYFCSQTTHVPWTFGGGTKVEIK
0.00862

Provide koff value for the following binder: P1AE1004, humanized anti-CD40 antibody VH1b/VL1c, huIgG1_LALA_PG (antibody, V domains shown, huIgG1 with effector silent Fc (P329G, L234A, L235A)) VH: QVQLVQSGAEVKKPGASVKVSCKASGYSFTGYYIHWVRQAPGKSLEWMGRVIPNAGGTSYNQKFKGRVTLTVDKSISTAYMELSRLRSDDTAVYYCAREGIYWWGQGTTVTVSS VL: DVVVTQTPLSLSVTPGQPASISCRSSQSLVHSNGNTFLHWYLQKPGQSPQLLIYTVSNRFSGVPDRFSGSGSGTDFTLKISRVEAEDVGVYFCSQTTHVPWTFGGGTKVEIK
0.00795

Please give measured koff of the following entry: P1AE0996, humanized anti-CD40 antibody VH1a/VL1d, huIgG1_LALA_PG (antibody, V domains shown, huIgG1 with effector silent Fc (P329G, L234A, L235A)) VH: QVQLVQSGAEVKKPGASVKVSCKASGYSFTGYYIHWVRQAPGQSLEWMGRVIPNAGGTSYNQKFKGRVTLTVDKSISTAYMELSRLRSDDTAVYYCAREGIYWWGQGTTVTVSS VL: DVVVTQTPLSLSVTPGQPASISCRSSQSLVHSNGNTFLHWYLQKPGQSPQLLIYTVSNRFSGVPDRFSGSGSGTDFTLKISRVEAEDVGVYFCSQTTHVPWTFGGGTKLEIK
0.00908

Give koff for the following binder: P1AE0407, humanized anti-CD40 antibody VH2d/VL2b, huIgG1_LALA_PG (antibody, V domains shown, huIgG1 with effector silent Fc (P329G, L234A, L235A); also called VL2b/VH2d) VH: EVQLLESGGGLVQPGGSLRLSCAASGYSFTGYYIHWVRQAPGKGLEWVGRVIPNAGGTSYGDSVKGRFTISVDNSKNTAYLQMNSLRAEDTAVYYCAREGIYWWGQGTTVTVSS VL: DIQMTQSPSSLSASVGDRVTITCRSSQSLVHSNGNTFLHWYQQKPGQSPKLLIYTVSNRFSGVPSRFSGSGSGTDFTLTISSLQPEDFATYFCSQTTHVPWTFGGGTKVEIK
0.0355
